B1: FADS1 (parent)
chain: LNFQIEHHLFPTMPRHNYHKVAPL

- Variants of: B1
- Method: protein stability index of a GFP-peptide fusion (GPS, HEK-293T) (PSI 1-6); higher = more stable;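 also: lentivirally expressed fusions sorted by FACS into six bins by GFP to DsRed ratio, PSI derived from sequencing read proportions per bin multiplied by bin number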
- Protocol conditions: c terminus: a fixed tail appended
Measured metric: protein stability index
Respond numerically, and do not add a unit to the figure.

Recorded protein stability index, per entry:
>>> endpoint_result("LNFQIEHHLFPTMPRHNMHKVAPL")
2.18
>>> endpoint_result("LNFQIEHHSFPTMPRHNYHKVAPL")
2.71
>>> endpoint_result("LNFQIEHQLFPTMPRHNYHKVAPL")
2.35
>>> endpoint_result("LNFQIEHHLFPTMPRHVYHKVAPL")
1.43
>>> endpoint_result("LNFQIEHHLFPTMPRHNYFKVAPL")
1.81
>>> endpoint_result("LNFQIEHHLFPTMPRHNYHKVAPN")
2.15
>>> endpoint_result("LNFQIEHHLFRTMPRHNYHKVAPL")
1.81
>>> endpoint_result("LNFQIEHHLFPTMPRHMYHKVAPL")
1.58
>>> endpoint_result("LNFPIEHHLFPTMPRHNYHKVAPL")
1.24
>>> endpoint_result("LNFQIEHELFPTMPRHNYHKVAPL")
3.1

stdin: Return reported protein stability index; argument: LNFQIEHHLFPTMPFHNYHKVAPL
stdout: 2.68

stdin: Return reported protein stability index; argument: LNFQIEHHLFPTMPRHHYHKVAPL
stdout: 1.81

stdin: Return reported protein stability index; argument: LNFQIEHHLFPEMPRHNYHKVAPL
stdout: 2.42

stdin: Return reported protein stability index; argument: LNFQIEHHLFPTYPRHNYHKVAPL
stdout: 2.83

stdin: Return reported protein stability index; argument: LNFQIEHHLFPTWPRHNYHKVAPL
stdout: 2.66

stdin: Return reported protein stability index; argument: LNFQIEHHCFPTMPRHNYHKVAPL
stdout: 1.72
